# System: APJ-eGFP fusion protein
# Sequence (P35414 whole entry, the tested form may be a part): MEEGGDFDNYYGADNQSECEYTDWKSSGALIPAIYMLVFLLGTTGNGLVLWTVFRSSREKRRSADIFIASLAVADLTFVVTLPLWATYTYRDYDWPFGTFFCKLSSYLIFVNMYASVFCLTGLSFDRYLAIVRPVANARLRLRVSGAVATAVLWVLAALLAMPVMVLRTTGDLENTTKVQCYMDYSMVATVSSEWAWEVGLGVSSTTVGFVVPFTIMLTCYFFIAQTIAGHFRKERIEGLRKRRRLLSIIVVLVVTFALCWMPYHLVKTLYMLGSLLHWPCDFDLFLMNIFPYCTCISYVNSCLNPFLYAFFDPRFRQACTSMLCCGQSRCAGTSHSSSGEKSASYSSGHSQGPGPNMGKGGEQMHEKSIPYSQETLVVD
# test: Internalization assay, CHO-M1 cells expressing APJ-eGFP, high-content imaging
# Assay type: cell-based
# Parameters: key: 0: No Internalization; >1000; 2: 100-1000; 3: 10-100; 4: <10
# measurement conditions: lowest concentration at which maximum internalization was observed; 0.914 nM to 2000 nM

[
  {
    "molecule": "APL-H: Leader-Fc-linker fusion of apelin analogue QRPRLSHKGPMHW (P12H, F13W) (protein) MRAWIFFLLCLAGRALADKTHTSPPSPAPEAAGGPSVFLFPPKPKDTLMISRTPEVTCVVVDVSHEDPEVKFNWYVDGVEVHNAKTKPREEQYNSTYRVVSVLTVLHQDWLNGKEYKCKVSNKALPAPIEKTISKAKGQPREPQVYTLPPSREEMTKNQVNLTCLVKGFYPSDIAVEWESNGQPENNYKTTPPVLDSDGSFFLNSTLTVDKSRWQQGNVFSCSVMHEALHNHYTQKSLSLSPGKGGGGSGGGGSGGGGSQRPRLSHKGPMHW",
    "Internalization Score": 0
  }
]
